- MEASURED TARGET: UniProtKB Q06124
- Sequence (Q06124 whole entry, species assumed): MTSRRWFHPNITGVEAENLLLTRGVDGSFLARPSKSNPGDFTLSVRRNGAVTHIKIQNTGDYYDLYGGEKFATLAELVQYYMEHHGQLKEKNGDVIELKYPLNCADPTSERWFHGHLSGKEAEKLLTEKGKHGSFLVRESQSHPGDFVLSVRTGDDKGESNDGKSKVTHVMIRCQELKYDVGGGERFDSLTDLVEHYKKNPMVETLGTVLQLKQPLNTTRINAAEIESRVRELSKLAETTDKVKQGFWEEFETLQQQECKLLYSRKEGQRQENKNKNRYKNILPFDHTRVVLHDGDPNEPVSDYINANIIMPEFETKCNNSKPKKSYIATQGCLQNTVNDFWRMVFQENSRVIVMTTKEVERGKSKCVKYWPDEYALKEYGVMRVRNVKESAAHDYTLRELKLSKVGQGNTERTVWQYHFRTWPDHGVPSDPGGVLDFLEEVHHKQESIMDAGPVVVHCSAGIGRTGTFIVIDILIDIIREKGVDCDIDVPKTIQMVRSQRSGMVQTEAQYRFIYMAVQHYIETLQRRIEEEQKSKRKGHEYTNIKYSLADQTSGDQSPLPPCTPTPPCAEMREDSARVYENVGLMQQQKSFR
- TEST NAME: Detection of in vitro SHP2 protein activity by DiFMUP fluorescence
- Assay type: biochemical
- APPLIED CONDITIONS: read-out: Phosphatase activity SHP2 IC50; DiFMUP substrate, fluorescence Ex340/Em450, 60 min pre-incubation with polypeptide; read-out: Proteinase activity SHP2 IC50
MEASURE: pIC50
A value of pIC50 is the negative decimal logarithm of a concentration given in moles per litre.

# MOLECULE SMILES, pIC50
rows = [
    ("Cc1nc(N2CCC3(CC2)Cc2ccc(C#N)cc2[C@H]3N)c(CO)nc1-c1cccc(Cl)c1Cl", 7.46),
]

// switching to the query compound
Field: pIC50 (UniProtKB Q06124). Entry: Cc1nc(N2CCC3(CC2)Cc2ccccc2[C@H]3N)c(CO)nc1-c1cccc(Cl)c1Cl
8.05
